Where do the numbers come from? From the supplement of paper PMC10724198.

System: Saccharomyces cerevisiae
Experiment: protein stability index of tFT-peptide fusion (C-terminal peptide) (PSI (0-1 scale)); higher = more stable (slower turnover)
Conditions: genetic background: wild type; temperature: 30 C
Entries and their measured protein stability index follow.
No unit in the answer, only the number.

Recorded result, ACVPGGFVWGGV , protein stability index: 0.754

Consider RTECRCCVGEVG . Its measured protein stability index is 0.656

Value of protein stability index reported for the sequence VSCGVSEGDVVC is 0.675

Entry under test: PGSAVSFLLTFR . Its protein stability index was 0.646

Record summary for VLVVFVGDSSKR : reported protein stability index = 0.662

Entry under test: PPTLPPPSPLIL . Its protein stability index was 0.775

For GGGGGCLSGRLG the sequence record lists protein stability index as 0.654

The reported value for HDPPPPPPLPRP in terms of protein stability index is 0.626

Summary for this sequence, HLSPAPPPPSAP : protein stability index is 0.706

// protein stability index lookup, sequence = EPRVGCVGFGIT , result: 0.638

Measured protein stability index, IATMSVAGGPRL : 0.677

Reported protein stability index for PVPMVPTYPPSP was 0.736

Entry under test: RDGDVRTLMGWD . Its protein stability index was 0.732

The reported value for VFLFSLCIRLSR in terms of protein stability index is 0.204

Lookup result for LPAHLLPPSSPS ; measured protein stability index: 0.741

Consider LANAGLVLPRIP . Its measured protein stability index is 0.679

Note to self: protein stability index recorded for LPPRPLPPPSRT was 0.7

====

Entries and their protein stability index
System: Saccharomyces cerevisiae
Test: protein stability index of tFT-peptide fusion (C-terminal peptide) (PSI (0-1 scale)); higher = more stable (slower turnover)
Conditions: genetic background: doa10 deletion; temperature: 30 C
Enter the number alone.

Solved cases below.
> print(dat)
        residues                 endpoint  meas.value
 1  VAFLWVAFCFSG  protein stability index       0.178
 2  LCIRHFRLLELL  protein stability index       0.165
 3  GGVVAACRGGIG  protein stability index       0.361
 4  GGVWSAFAVWVC  protein stability index      0.0761
 5  CFCPILFPRCLA  protein stability index       0.142
 6  WYLLCESCLLCL  protein stability index        0.39
 7  ICWVSLYFSMLV  protein stability index       0.335
 8  FFVFSFVLFFPL  protein stability index       0.307
 9  LRGIVSVWILRA  protein stability index       0.149
10  RSLSFGMVLCYS  protein stability index       0.228

Item: FFLFLVCLFFFS | protein stability index: 0.36

Short answer for MFTIYISFVFAF : protein stability index was 0.179

Form: sequence = QRTNTIINKRIV ; protein stability index = 0.478

====

Below, each of the sequences is paired with its reported protein stability index value.
Test system: Saccharomyces cerevisiae
Assay: protein stability index of tFT-peptide fusion in deletion strain of DAS1 (PSI (0-1 scale)); higher = more stable (slower turnover)
Simply state the number, no unit and no words.

Assay Saccharomyces cerevisiae, sample PDKRNHLIKLLNI , protein stability index read: 0.662

Simply: RLIQPWPVQFLN , Saccharomyces cerevisiae, protein stability index = 0.545

# value of protein stability index, Saccharomyces cerevisiae, item IRWRVGLWRGAS = 0.707
